assayed_target: Integrin alpha-V/beta-3 (Homo sapiens, UniProt P05106+P06756)
Sequence (P05106 27-788 limits assumed): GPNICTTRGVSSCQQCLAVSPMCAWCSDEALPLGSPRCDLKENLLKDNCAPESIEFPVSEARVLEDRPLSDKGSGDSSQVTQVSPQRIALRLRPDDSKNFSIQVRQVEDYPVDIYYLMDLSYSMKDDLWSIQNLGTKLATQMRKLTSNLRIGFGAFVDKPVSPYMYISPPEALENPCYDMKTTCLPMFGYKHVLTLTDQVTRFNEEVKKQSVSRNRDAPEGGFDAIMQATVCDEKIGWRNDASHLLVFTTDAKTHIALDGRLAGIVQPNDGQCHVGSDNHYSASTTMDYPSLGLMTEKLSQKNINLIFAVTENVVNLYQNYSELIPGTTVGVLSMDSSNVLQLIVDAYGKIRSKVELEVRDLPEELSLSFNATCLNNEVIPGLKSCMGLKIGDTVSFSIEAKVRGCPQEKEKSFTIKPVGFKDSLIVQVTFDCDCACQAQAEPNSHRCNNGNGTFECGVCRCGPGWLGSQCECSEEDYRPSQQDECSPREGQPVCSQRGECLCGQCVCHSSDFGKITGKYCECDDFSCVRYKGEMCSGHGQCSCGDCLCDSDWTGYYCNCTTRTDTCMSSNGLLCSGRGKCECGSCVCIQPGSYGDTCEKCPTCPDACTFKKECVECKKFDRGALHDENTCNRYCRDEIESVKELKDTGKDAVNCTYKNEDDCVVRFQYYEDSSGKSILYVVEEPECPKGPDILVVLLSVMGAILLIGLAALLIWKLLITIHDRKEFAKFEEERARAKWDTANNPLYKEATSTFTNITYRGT
Sequence (P06756 31-889 limits assumed): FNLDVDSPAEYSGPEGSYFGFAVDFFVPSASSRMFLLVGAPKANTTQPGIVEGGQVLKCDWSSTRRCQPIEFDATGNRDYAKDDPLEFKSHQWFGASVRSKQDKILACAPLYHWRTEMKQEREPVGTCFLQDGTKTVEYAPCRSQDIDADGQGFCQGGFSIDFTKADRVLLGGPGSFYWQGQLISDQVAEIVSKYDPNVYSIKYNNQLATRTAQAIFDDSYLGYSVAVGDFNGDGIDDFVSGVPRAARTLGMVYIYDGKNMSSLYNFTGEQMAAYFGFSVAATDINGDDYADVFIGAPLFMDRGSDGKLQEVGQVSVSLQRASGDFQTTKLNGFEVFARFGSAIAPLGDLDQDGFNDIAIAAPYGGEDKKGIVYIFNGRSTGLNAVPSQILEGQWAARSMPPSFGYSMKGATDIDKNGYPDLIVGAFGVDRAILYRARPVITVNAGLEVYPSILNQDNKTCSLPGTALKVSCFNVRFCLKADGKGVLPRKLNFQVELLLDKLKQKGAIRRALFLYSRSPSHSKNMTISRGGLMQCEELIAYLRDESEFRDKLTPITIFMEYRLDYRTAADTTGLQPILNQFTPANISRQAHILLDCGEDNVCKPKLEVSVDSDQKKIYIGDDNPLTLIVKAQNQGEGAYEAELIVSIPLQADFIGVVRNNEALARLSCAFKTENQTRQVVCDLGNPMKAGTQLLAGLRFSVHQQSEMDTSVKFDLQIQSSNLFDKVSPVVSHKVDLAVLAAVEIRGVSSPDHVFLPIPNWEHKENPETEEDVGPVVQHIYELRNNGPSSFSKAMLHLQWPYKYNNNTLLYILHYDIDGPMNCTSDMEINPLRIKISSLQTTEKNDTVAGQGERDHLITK
Sequence (P06756 891-1048 limits assumed): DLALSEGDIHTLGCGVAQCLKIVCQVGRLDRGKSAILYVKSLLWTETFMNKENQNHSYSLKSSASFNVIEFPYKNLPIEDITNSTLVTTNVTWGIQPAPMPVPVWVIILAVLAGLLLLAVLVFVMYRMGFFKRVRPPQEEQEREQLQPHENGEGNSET
experiment_summary: In vitro inhibitory activity against alpha v beta 3 vitronectin protein interaction was measured by ELISA
pIC50: −log10 of the molar value.
quantity_name: pIC50

[
  {
    "compound": "N=C(N)NOCCOc1ccc2[nH]c(C(=O)NCC(NS(=O)(=O)c3cc(Cl)cc(Cl)c3)C(=O)O)cc2c1 (centres undefined)",
    "measured_result": 8.21
  },
  {
    "compound": "Cc1ccc(S(=O)(=O)NC(CNC(=O)c2cc3cc(OCCON=C(N)N)ccc3[nH]2)C(=O)O)cc1 (centres undefined)",
    "measured_result": 8.05
  },
  {
    "compound": "CCCCS(=O)(=O)NC(CNC(=O)c1cc2cc(OCCON=C(N)N)ccc2[nH]1)C(=O)O (centres undefined)",
    "measured_result": 7.98
  },
  {
    "compound": "N=C(N)NOCCOc1ccc2[nH]c(C(=O)NCC(NC(=O)OCc3ccccc3)C(=O)O)cc2c1 (centres undefined)",
    "measured_result": 8.14
  }
]

Reference source for all entries: ChEMBL document CHEMBL1137098
